Origin of the recorded values: PubChem BioAssay (NCATS)

measurement protocol: Cell Viability - LYMP2-006 (AID 978);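 note: cells exposed to compound for 24 hours; nearly all actives have a fitted effect of over 60% in size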
test conditions: LYMP2-006 lymphoblastoid cell viability, qHTS; series mostly up to 92.2 µM
Inconclusive results are not listed. Activity calls are given as the source filed them. Calls come from the whole dose curve; as a rule, active = well fitted cell-killing curve with a large enough effect; inconclusive = small, poorly fitted or top-dose-only effect; inactive = flat fitted curve, though single readings scatter.
Possible outcomes: active, inactive

1) CC(C)C=O    inactive
2) BrC(Br)C(Br)Br    inactive
3) Cc1ccc(C#N)cc1    inactive
4) O=P(O)(OCc1ccccc1)OCc1ccccc1    inactive
5) O=C(O)c1cc(Cl)cc(Cl)c1    inactive
6) CCC(C)O (stereo not drawn)    inactive
7) Cc1ccccc1C(=O)O    inactive
8) Cc1ccc(N(C)C)cc1    inactive
9) CCOCCOCC    inactive
10) C=CC(=O)OCCCC    inactive
11) C[C@@H]1O[C@@H](O[C@@H]2[C@@H](O)[C@H](OCCc3ccc(O)c(O)c3)O[C@H](CO[C@@H]3O[C@H](CO)[C@@H](O)[C@H](O)[C@H]3O)[C@H]2OC(=O)/C=C/c2ccc(O)c(O)c2)[C@H](O)[C@H](O)[C@H]1O    inactive
12) CCCOCC(C)OCC(C)O (stereo not drawn)    inactive
13) COc1ccc(N)c(OC)c1    inactive
14) Cc1cccc(C)c1    inactive
15) ClC/C=C/CCl    inactive
16) O=C1NC(=O)c2cc([N+](=O)[O-])ccc21    inactive
17) Cc1ccc(C(C)(C)C)cc1    inactive
18) CC(C)=CCl    inactive
19) O=C(O)c1ccc(Cl)c(Cl)c1    inactive
20) Cc1ccccc1Br    inactive
21) CC(C)=CCC/C(C)=C/C=O    inactive
22) CCN(C(=O)N(CC)c1ccccc1)c1ccccc1    inactive
23) COc1ccc(N)c(C)c1    inactive
24) CC(C)(O)C(=O)O    inactive
25) O=[N+]([O-])c1ccccc1CCO    inactive
26) CC(C)CCOC(=O)/C=C/c1ccccc1    inactive
27) CCCC=O    inactive
28) CC(=O)Nc1ccc(N)cc1    inactive
29) Cc1cc(C)c(N)cc1C    inactive
30) O=C1OC(=O)c2c(Br)c(Br)c(Br)c(Br)c21    inactive
31) CCc1ccccc1O    inactive
32) CCCCCCCCC    inactive
33) O=C1C=CCCC1    inactive
34) CC=C(Cl)Cl    inactive
35) O=Cc1ccc(C(=O)O)cc1    inactive
36) CC(=O)Nc1cccc(N)c1    inactive
37) CC(C)(C)c1ccc(OCC2CO2)cc1 (stereo not drawn)    inactive
38) FC(F)(F)c1ccccc1Cl    inactive
39) Nc1cccc(C(F)(F)F)c1    inactive
40) COCCOC(=O)c1ccccc1C(=O)OCCOC    inactive
41) COc1ccc(N=[N+]([O-])c2ccc(OC)cc2)cc1    inactive
42) O=C(O)c1ccccc1C(=O)O    inactive
43) Cc1ccc2nc(-c3ccc(N)cc3)sc2c1S(=O)(=O)O    inactive
44) CC(C)Nc1ccccc1    inactive
45) Cc1ccc([N+](=O)[O-])c(N)c1    inactive
46) CCCCC(C=O)CC (stereo not drawn)    inactive
47) COC(=O)CS    inactive
48) C=C(C)C1CC=C(C)C(OC(C)=O)C1 (stereo not drawn)    inactive
49) CCCCC(CC)COC(=O)CCCCC(=O)OCC(CC)CCCC (stereo not drawn)    inactive
50) CC(C)Cc1nccs1    inactive
51) C[C@@H]1CC2(OC3C[C@@]4(C)C5=CC[C@H]6C(C)(C)C(O[C@@H]7OC[C@@H](O)[C@H](O)[C@H]7O)CC[C@@]67C[C@@]57CC[C@]4(C)C31)OC(O)C1(C)OC21 (stereo partly drawn)    inactive
52) C1CCOC1    inactive
53) Cc1ccc(C)c(O)c1    inactive
54) C=C(C)C(=O)OC    inactive
55) Cc1cscn1    inactive
56) CC(C)(O)CCC(C)(C)O    inactive
57) OCCO    inactive
58) Nc1ccccc1[N+](=O)[O-]    inactive
59) O=[N+]([O-])c1ccc(Cl)cc1Cl    inactive
60) CCOC(C)(C)C    inactive
61) Cc1ccc(C)o1    inactive
62) COc1cccc2sc(N)nc12    inactive
63) NC=O    inactive
64) Nc1ccc(Cl)cc1[N+](=O)[O-]    inactive
65) O=C(O[C@@H](C(=O)O)[C@@H](OC(=O)c1ccccc1)C(=O)O)c1ccccc1    inactive
66) Cc1ccc2cccnc2c1    inactive
67) CCCCC/C=C/C=C/C=O    active
68) C/C=C1\CC2C=CC1C2 (stereo not drawn)    inactive

* * *

measurement protocol: qHTS assay for small molecule disruptors of the mitochondrial membrane potential - 1 hr assay (AID 651754); note: nearly all actives have a fitted effect of over 35% in size
test conditions: series mostly up to 92.2 µM
Source text: National Center for Advancing Translational Sciences [NCATS] NIH Chemical Genomics Center [NCGC] National Institutes of Environmental Health Sciences [NIEHS] National Toxicology Program [NTP] Mitochondrial membrane potential (MMP), one of the parameters for mitochondrial function, is generated by mitochondrial electron transport chain that creates an electrochemical gradient by a series of redox reactions. […] The dye accumulates in the mitochondria of healthy cells as aggregates, with red fluorescence. […]
Inconclusive results are not listed. Active and inactive are the calls of the source. Calls follow the shape of the full dose curve.
Possible outcomes: active, inactive

1) Cc1ccc(Br)cc1    inactive
2) CCCCCCCCCCCCOCC1CO1 (centres undefined)    inactive
3) CC(C)c1ccccc1    inactive
4) Nc1cccc(N)c1    active
5) NC(=O)NC(N)=O    inactive
6) NCCCCCCN    inactive
7) CCCCCCCCCCCCC1CO1 (centres undefined)    inactive
8) CC(=O)OCc1ccco1    inactive
9) CCCCOCCOCCOCCCC    inactive

* * *

measurement protocol: Cellular Toxicity (caspase-3) SK-N-SH (AID 661);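 note: cells exposed to compound for 16 hours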
test conditions: SK-N-SH caspase-3 activation, qHTS, DMSO as zero, staurosporine as full; series mostly up to 91.7 µM
Description: NIH Chemical Genomics Center [NCGC] NIH Molecular Libraries Screening Centers Network [MLSCN] National Institutes of Environmental Health Sciences [NIEHS] National Toxicology Program [NTP] We have developed a 1536-well cell-based assay for quantitative high throughput screening (qHTS) against a number of cell lines to determine in vitro caspase 3/7 activity of small molecules. […] 8. Detection; Luminescence; Viewlux plate reader […]
The source made the active and inactive calls. Calls follow the shape of the dose curve; as a rule, active = well fitted activation curve with a large enough effect; inconclusive = small, poorly fitted or top-dose-only effect; inactive = flat fitted curve, though single readings scatter.
metric name: outcome

1. CC(C)(O)CCC(C)(C)O    inactive
2. O=C(O)c1cccc([N+](=O)[O-])c1    inactive
3. CO[Si](CCCNCCC[Si](OC)(OC)OC)(OC)OC    inactive
4. CC(CCl)OC(C)CCl (configuration not stated)    inactive
5. C1COC1    inactive
6. CC(=O)c1ccccc1[N+](=O)[O-]    inactive
7. O=[N+]([O-])c1ccc(CCO)cc1    inactive
8. Fc1ccccc1    inactive
9. c1ccc2c(c1)Oc1ccccc1S2    inactive
10. CCCCC(CC)CO (configuration not stated)    inactive
11. NS(=O)(=O)O    inactive
12. CCOC(C)(C)C    inactive
13. COC(=O)c1ccccc1    inactive
14. CN(C)CCCNCCCN    inactive
15. CCCCC(=O)N(C)C    inactive
16. Cc1ccc(CO)cc1    inactive
17. Oc1cccc(Nc2ccccc2)c1    inactive
18. C[C@@H]1O[C@@H](O[C@@H]2[C@@H](O)[C@H](OCCc3ccc(O)c(O)c3)O[C@H](CO[C@@H]3O[C@H](CO)[C@@H](O)[C@H](O)[C@H]3O)[C@H]2OC(=O)/C=C/c2ccc(O)c(O)c2)[C@H](O)[C@H](O)[C@H]1O    inactive
19. CSc1ccc(C=O)cc1    inactive
20. CCCCCCC=O    inactive
21. NC=O    inactive
22. O=[N+]([O-])c1ccc(NCCO)c(OCCO)c1    inactive
23. CC(C)=C1CCC(C)CC1=O (configuration not stated)    inactive
24. [O-]/[N+](=N\O)c1ccccc1    inactive
25. COC(=O)CC#N    inactive
26. O=C1OC(=O)c2cc([N+](=O)[O-])ccc21    inactive
27. S=C([S-])NCCNC(=S)[S-].[Zn+2]    inactive
28. NC(N)=S    inactive
29. BrC/C=C/CBr    inactive
30. O=C(Cl)c1ccccc1[N+](=O)[O-]    inactive
31. CCCCC(C=O)CC (configuration not stated)    inactive
32. O=[N+]([O-])c1ccc2nc[nH]c2c1    inactive

* * *

measurement protocol: Cell Viability - LYMP2-008 (AID 980);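 note: cells exposed to compound for 24 h at 37 °C; nearly all actives have a fitted effect of over 60% in size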
test conditions: LYMP2-008 lymphoblastoid cell viability, qHTS; series mostly up to 92.2 µM
Records with an inconclusive call do not appear. Activity calls are given as the source filed them. The call rests on the fitted dose curve; in most records, active means well fitted cell-killing curve with a large enough effect; inconclusive means small, poorly fitted or top-dose-only effect; inactive means flat fitted curve, though single readings scatter.
metric name: outcome

1. CCCCC=O    inactive
2. CCOCCO    inactive
3. Nc1c(Cl)cc(Cl)cc1Cl    inactive
4. CC(C)N(C)C    inactive
5. O=C(O)c1ccc(Cl)cc1Cl    inactive
6. CCCCC(CC)C(=O)O (centres undefined)    inactive
7. Nc1cc(Cl)c(N)c(Cl)c1    inactive
8. O=C1CCCCC1    inactive
9. NC=O    inactive
10. O=C(O)/C=C/C(=O)O    inactive
11. Nc1cccc(S(=O)(=O)O)c1    inactive
12. CCOc1ccc(NC(C)=O)cc1N    inactive
13. COC(=O)CCC(=O)OC    inactive
14. Cc1c(N)cccc1[N+](=O)[O-]    inactive
15. c1ccc2n[nH]nc2c1    inactive
16. CCCC=O    inactive
17. CCC1CO1 (centres undefined)    inactive
18. CC(C)Cc1nccs1    inactive
19. C1CCOC1    inactive
